Source listed as ChEMBL document CHEMBL2417425.

# Test system: Mycolicibacterium fortuitum
# procedure.text: Antimycobacterial activity against Mycobacterium fortuitum ATCC 19542 assessed as growth inhibition at 1 to 100 ug/mL by resazurin assay
# Type: functional
MIC values, listed per item
Report only the number, with the unit µg/mL understood.

>>> reading("NNC(=O)c1ccncc1")
12.5
>>> reading("O=[N+]([O-])c1ccc(OCc2nc3cc(Br)ccc3n2S(=O)(=O)c2ccccc2[N+](=O)[O-])cc1")
10

Please turn your attention to the following entry.
Prompt: Consider the compound `Cc1cccc(S(=O)(=O)n2c(COc3ccc([N+](=O)[O-])cc3)nc3cc(Br)ccc32)c1` and give its measured MIC.
Completion: 10

* * *

# Tested on: Candida albicans
# procedure.text: Antifungal activity against Candida albicans assessed as growth inhibition by serial dilution method
# Type: functional
measured.endpoint: MIC (µg/mL)
Report only the number, with the unit µg/mL understood.

Reference set, count: 4
>>> reading("Cc1cccc(S(=O)(=O)n2c(COc3ccc([N+](=O)[O-])cc3)nc3ccc(Br)cc32)c1")
256
>>> reading("O=[N+]([O-])c1ccc(OCc2nc3cc(Br)ccc3n2S(=O)(=O)c2ccccc2[N+](=O)[O-])cc1")
16
>>> reading("Cc1c(F)cccc1S(=O)(=O)n1c(COc2ccc([N+](=O)[O-])cc2)nc2ccc(Br)cc21")
256
>>> reading("COc1ccc(S(=O)(=O)n2c(COc3ccc([N+](=O)[O-])cc3)nc3cc(Br)ccc32)c(OC)c1")
128

Please turn your attention to the following entry.
Prompt: Consider the molecule `O=[N+]([O-])c1ccc(OCc2nc3cc(Br)ccc3n2S(=O)(=O)c2cc(F)ccc2F)cc1` and give its measured MIC.
Completion: 16

* * *

# System: Candida albicans
# procedure.text: Antifungal activity against Candida albicans assessed as growth inhibition by serial dilution method
# Type: functional
measured.endpoint: MIC (µg/mL)
Report only the number, with the unit µg/mL understood.

>>> reading("N#Cc1cccc(S(=O)(=O)n2c(COc3ccc([N+](=O)[O-])cc3)nc3ccc(Br)cc32)c1")
128

Prompt: Consider the molecule C[C@@H]1[C@H](O)[C@@H](C)/C=C/C=C/C=C/C=C/C=C/C=C/C=C/[C@H](O[C@@H]2O[C@H](C)[C@@H](O)[C@H](N)[C@@H]2O)C[C@@H]2O[C@](O)(C[C@@H](O)C[C@@H](O)[C@H](O)CC[C@@H](O)C[C@@H](O)CC(=O)O[C@H]1C)C[C@H](O)[C@H]2C(=O)O [AMPHOTERICIN B] and give its measured MIC.
Completion: 8

* * *

MIC values, listed per item
# Test system: Candida albicans
# procedure.text: Antifungal activity against Candida albicans assessed as growth inhibition by serial dilution method
# Type: functional
Report only the number, with the unit µg/mL understood.

Prompt: Consider the molecule `O=[N+]([O-])c1ccc(OCc2nc3ccc(Br)cc3n2S(=O)(=O)c2cc(F)ccc2F)cc1` and give its measured MIC.
Completion: 128

* * *

# Test system: Candida albicans
# procedure.text: Antifungal activity against Candida albicans assessed as growth inhibition by serial dilution method
# Type: functional
MIC values, listed per item

Prompt: Consider the compound `COc1ccc(OC)c(S(=O)(=O)n2c(COc3ccc([N+](=O)[O-])cc3)nc3ccc(Br)cc32)c1` and give its measured MIC.
Completion: > 256 µg/mL

Prompt: Consider the compound `O=[N+]([O-])c1ccc(OCc2nc3ccc(Br)cc3n2S(=O)(=O)c2ccccc2[N+](=O)[O-])cc1` and give its measured MIC.
Completion: > 256 µg/mL

Prompt: Consider the compound `O=[N+]([O-])c1ccc(OCc2nc3ccc(Br)cc3n2S(=O)(=O)c2ccc(Cl)cc2Cl)cc1` and give its measured MIC.
Completion: > 256 µg/mL
